Test system: Vesicular stomatitis virus
method_notes: Antiviral activity against Vesicular stomatitis virus infected in human HeLa assessed as inhibition of virus-induced cytopathicity after 3 days
Type: functional, organism-based
The source made the active and inactive calls. No cut-off for these calls is given here.
reported_metric: Activity

Query: Activity; subject: `CC(C)c1ccc(Nc2nc(N)nc3c2ncn3C/C=C/CP(=O)(OCOC(=O)C(C)(C)C)OCOC(=O)C(C)(C)C)cc1`
inactive

Query: Activity; subject: `C=CCNc1ncnc2c1ncn2C/C=C/CP(=O)(OCOC(=O)C(C)(C)C)OCOC(=O)C(C)(C)C`
inactive

Query: Activity; subject: `CCCCNc1ncnc2c1ncn2C/C=C/CP(=O)(OCOC(=O)C(C)(C)C)OCOC(=O)C(C)(C)C`
inactive

Query: Activity; subject: `CC(C)(C)C(=O)OCOP(=O)(C/C=C/Cn1cnc2c(NC3CC3)ncnc21)OCOC(=O)C(C)(C)C`
inactive

Sourced from ChEMBL document CHEMBL2146385
